Values compiled from patent US8658639B2.

Recorded pIC50 values for a group of compounds are listed next.
Biological target: Recombinant human renin (Homo sapiens, UniProt P00797)
Sequence (P00797 67-406): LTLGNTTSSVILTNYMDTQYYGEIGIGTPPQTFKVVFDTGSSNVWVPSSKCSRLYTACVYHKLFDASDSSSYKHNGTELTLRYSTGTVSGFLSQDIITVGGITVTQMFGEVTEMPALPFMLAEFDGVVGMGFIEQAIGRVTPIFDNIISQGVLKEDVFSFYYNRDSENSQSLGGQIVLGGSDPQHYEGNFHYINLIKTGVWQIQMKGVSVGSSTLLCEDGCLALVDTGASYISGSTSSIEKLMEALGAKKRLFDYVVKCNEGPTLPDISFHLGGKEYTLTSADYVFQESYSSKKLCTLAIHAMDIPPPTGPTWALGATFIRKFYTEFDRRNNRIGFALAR
Assay: In vitro renin inhibitory activity assay
Conditions: recombinant human renin 4.2 ng/mL, substrate 4 μM, 37° C., one hour, pH 7.4
By convention, pIC50 is the negative base-10 log of a molar concentration.

For orientation, consider the following solved cases.
CCC(=O)NCCN1C(=O)C2(CCC2)Oc2cc(C)c(C(=O)N(C(C)C)C3CCCN(C(=O)OC(OC(=O)C(C)C)C(C)C)C3)cc21 (stereo not drawn) [Example 45]	7.28
CCC(=O)NCCN1C(=O)C(C)(C)Oc2cc(C)c(C(=O)N(C(C)C)C3CCCN(C(=O)OC(C)OC(=O)C4CCOCC4)C3)cc21 (single isomer, unassigned) [Example 88]	8.02

What value of pIC50 has been reported for the following compound? CCC(=O)NCCN1C(=O)C(C)(C)Oc2cc(C)c(C(=O)N(C(C)C)C3CCCN(C(=O)OC(C)OC(=O)C4CCOCC4)C3)cc21 (stereo not drawn) [Example 60]
8.49

====

Measured pIC50, listed per entry.
Biological target: Recombinant human renin (Homo sapiens)
Experiment: In vitro renin inhibitory activity assay
Assay type: biochemical
Details: recombinant human renin 4.2 ng/mL, substrate 4 μM, 37° C., one hour, pH 7.4
// pIC50: -log10(molar conc.)

CCOC(=O)OC(C)OC(=O)N1CCCC(N(C(=O)c2cc3c(cc2C(F)(F)F)OC(C)(COC)C(=O)N3CCNC(=O)CC)C(C)C)C1 (stereo not drawn)	7.24
CCC(=O)NCCN1C(=O)C(C)(C)Oc2cc(C)c(C(=O)N(C(C)C)[C@@H]3CCCN(C(=O)O[C@H](C)OC(=O)CC)C3)cc21	7.32

As a next step, examine the molecule that follows.
Give its pIC50 value. Item: CCC(=O)NCCN1C(=O)[C@](C)(COC)Oc2cc(C)c(C(=O)N(C(C)C)[C@@H]3CCCN(C(=O)O[C@@H](C)OC(=O)C(C)C)C3)cc21
5.72
